target: Tyrosine-protein kinase BTK (Homo sapiens, UniProt Q06187)
Sequence (Q06187 whole entry): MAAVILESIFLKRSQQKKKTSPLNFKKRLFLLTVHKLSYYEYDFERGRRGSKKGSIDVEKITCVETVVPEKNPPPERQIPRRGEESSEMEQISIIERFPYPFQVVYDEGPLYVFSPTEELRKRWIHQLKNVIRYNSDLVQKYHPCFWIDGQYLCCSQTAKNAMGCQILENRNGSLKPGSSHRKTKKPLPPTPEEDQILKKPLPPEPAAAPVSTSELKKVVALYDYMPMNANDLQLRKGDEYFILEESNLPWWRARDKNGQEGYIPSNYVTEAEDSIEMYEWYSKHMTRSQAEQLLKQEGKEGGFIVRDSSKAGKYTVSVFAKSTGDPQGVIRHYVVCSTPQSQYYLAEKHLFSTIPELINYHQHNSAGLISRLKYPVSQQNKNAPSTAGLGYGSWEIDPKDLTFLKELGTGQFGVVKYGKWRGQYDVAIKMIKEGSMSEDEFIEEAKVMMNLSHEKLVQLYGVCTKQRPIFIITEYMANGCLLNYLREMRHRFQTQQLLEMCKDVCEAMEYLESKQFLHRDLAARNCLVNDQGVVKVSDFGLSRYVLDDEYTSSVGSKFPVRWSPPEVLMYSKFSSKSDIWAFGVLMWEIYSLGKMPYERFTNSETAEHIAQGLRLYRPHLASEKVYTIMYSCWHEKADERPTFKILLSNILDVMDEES
resultType: IC50 (nM)
I only need the number, in nM, no unit after it.

Incoming: Which IC50 is reported for this compound? `COc1cc2cn[nH]c2cc1-c1ccc(F)c2c(N)c(C(N)=O)cnc12`
Outgoing: 5.3

* * *

experiment: Stability in Sprague-Dawley rat plasma assessed as parent compound remaining at 1 uM measured after 2 hrs by LC-MS/MS analysis; format: ADME, cell-free; conditions: read-out: Stability
resultType: remaining at 2 h, 1 µM
The reply should read as a number followed by its unit.

Incoming: Entry `COc1cc2cn[nH]c2cc1-c1ccc(F)c2c(N)c(C(N)=O)cnc12` has what remaining at 2 h, 1 µM?
Outgoing: 96%
